# Tested on: UACC-62 melanoma
# protocolDetails: NCI tumour cell line growth inhibition, 48 h
valueKind: TGI

Entry "O=CCCCCCOCc1ccccc1" , UACC-62 melanoma data, TGI value: > 89.4 µM

Entry "CC(C)Cc1cnc(CC(C)C)c(=O)[nH]1" , UACC-62 melanoma data, TGI value: > 100 µM

Entry N[C@@H](CCC(=O)NC(Cc1ccccc1)C(=O)NCP(=O)(O)O)C(=O)O (stereo partly specified) , UACC-62 melanoma data, TGI value: > 100 µM

Entry COC(=O)C(C(=O)C(=O)Nc1c(C)cccc1C(C)(C)C)c1nc2ccc(Cl)cc2[nH]c1=O (stereo unspecified) , UACC-62 melanoma data, TGI value: > 100 µM

Entry "CCOc1c(Br)cc(Br)cc1C=C(C#N)C#N" , UACC-62 melanoma data, TGI value: > 10 µM

Entry "O=c1[nH]ccc(CNC23CC4CC(CC(C4)C2)C3)c1O" , UACC-62 melanoma data, TGI value: > 100 µM

Entry Cn1c(=O)oc2cc(C3CCC(=O)N3Cc3csc(-c4ccccc4)n3)ccc21 (stereo unspecified) , UACC-62 melanoma data, TGI value: > 100 µM

Entry "O=[N+]([O-])c1ccc(-n2nc3ccc4nonc4c3n2)cc1" , UACC-62 melanoma data, TGI value: > 100 µM

Entry COc1c2ccoc2nc2c(OC)c(OCC(O)C(C)(C)O)ccc12 (stereo unspecified) , UACC-62 melanoma data, TGI value: > 100 µM

Entry "C1=CC(=P(c2ccccc2)(c2ccccc2)c2ccccc2)C=C1" , UACC-62 melanoma data, TGI value: 20 µM

Entry "CCc1nc(N)c2nc(-c3cccs3)oc2n1" , UACC-62 melanoma data, TGI value: > 100 µM

The measured values listed here are drawn from PubChem BioAssay (NCI).
